test system: SYO-1 tumor spheroids, viability % test/control; test: Anticancer human tumor SYO-1 cell line growth inhibition; settings: second compound 31.6 µM; first compound 0.949 µM; hits give low values; spheroids with HUVEC and MSC;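 note: spheroids exposed to agents for 7 days before viability read; 100% = DMSO vehicle control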
RECORDED_ENDPOINT: viability, T/C (%)
Numbers only here, please. The scale is %.

Example entries and their recorded answers appear below.
- MOLECULE: "Cn1ncnc1[C@H]1c2n[nH]c(=O)c3cc(F)cc(c23)N[C@@H]1c1ccc(F)cc1 + Cn1nnc2c(C(N)=O)ncn2c1=O"
  viability, T/C (%): 2
- MOLECULE: "Cc1sc2c(c1C)C(c1ccc(Cl)cc1)=NC(CC(=O)Nc1ccc(O)cc1)c1nnc(C)n1-2 (centres undefined) + Cn1nnc2c(C(N)=O)ncn2c1=O"
  viability, T/C (%): 0.85
- MOLECULE: "O=C(c1cc(Cc2n[nH]c(=O)c3ccccc23)ccc1F)N1CCN(C(=O)C2CC2)CC1 + Cn1nnc2c(C(N)=O)ncn2c1=O"
  viability, T/C (%): 3.35

viability, T/C reading for CNCc1ccc(-c2cc(-c3nc(-c4ccc(S(=O)(=O)C(C)C)cc4)cnc3N)on2)cc1 + Cn1nnc2c(C(N)=O)ncn2c1=O : 0.23
